Reference for the values: ChEMBL document CHEMBL1201862

System: SK-OV-3
EXPERIMENT_SUMMARY: NCI tumour cell line growth inhibition, 48 h
Calls of active or inactive are those of the source. Rule as the data show it: active = GI50 up to about 1.1 µM and inactive = higher.
For each entry below, report its GI50 value.

[
  {
    "COMPOUND": "Cc1ccc(S(=O)(=O)NC(=O)NCC(=O)NCC(=O)O)cc1",
    "EXPERIMENTAL_READOUT": "GI50",
    "OBS_VALUE": "> 100 µM (inactive)"
  },
  {
    "COMPOUND": "CN1CCCC2[C@@H]3CCC4=C(O)C(=O)CC[C@]4(C)C3CC[C@@]21C (stereo not given in full)",
    "EXPERIMENTAL_READOUT": "GI50",
    "OBS_VALUE": "> 100 µM (inactive)"
  },
  {
    "COMPOUND": "COC(=O)c1cccn1C(=O)n1cccc1",
    "EXPERIMENTAL_READOUT": "GI50",
    "OBS_VALUE": "> 100 µM (inactive)"
  }
]

Provide GI50 for all items below, preserving their order.
1. C[C@@H](NS(=O)(=O)c1ccc(NC(=O)c2ccccc2)cc1)C(=O)O
2. COC(=O)CCC1CCc2c(OC)ccc(OC)c2C1=O (stereo not given)
3. CCOc1ccccc1NC(=O)CCc1n[nH]c(=S)o1
4. COc1ccc2cc(-c3nc(N)nc(N4N=C(C)CC4(C)C)n3)c(=N)oc2c1
5. O=C(O)c1ccccc1SCc1cccc2c(=O)c3ccc(Cl)cc3oc12
6. COc1ccc(C(OCC2OC(n3cc(C)c(=O)[nH]c3=O)CC2n2cc(Cn3cc(Br)c(=O)[nH]c3=O)nn2)(c2ccccc2)c2ccccc2)cc1 (stereo not given)
7. Cc1ccc2c(=O)[nH]sc2c1

["> 100 µM (inactive)", "> 100 µM (inactive)", "> 100 µM (inactive)", "23.6 µM (inactive)", "> 50 µM (inactive)", "> 100 µM (inactive)", "> 100 µM (inactive)"]
